FYI, the data here is from patent US20230220053A1.

Target: T1, SARS-CoV-2-RBD (328-533)-Fc (SARS-CoV-2)
T1 construct: also called RBD-Fc
Test: SPR (Biacore T200), RBD captured on anti-human Fc chip, scFv injected
test_readout: koff (s⁻¹)
State just the number; it will be interpreted in s⁻¹.

Which koff value is on record for 2020EP54-E10 scFv (scFv, also called 2020EP054-E10) scFv: QVQLVQSGAEVRKPGSSVKVSCKASGGTFSSFAISWVRQAPGQGLEWMGGIIPIFDTATYAQNFQGRVRMTADESTNTAYMELSSLTSEDTAVYYCARSTSYYDSRGDYKVGDFDYWGQGTLVTVSSGGGGSGGGGSGGGGSAIRMTQSPSSLSASVGDRVTITCQASQDISNYLNWYQQKPGKAPKLLIYDASNLETGVPSRFSGSGSGTDFTFTISSLQPEDIATYYCQQYDNLPLTFGGGTKVEIK ?
0.000906
